Biological target: recombinant arginase from Leishmania mexicana (LmARG) (Leishmania mexicana)
Assay: Inhibition of recombinant LmARG, colorimetric urea assay
Format: biochemical
Settings: read-out: % Inhibition LmARG [200 μM]
# cutoff 40% applies to inhibition at 200 µM; >= gives Met, < gives Not met

{"columns": ["structureAsSmiles", "discreteLabel"],
 "data": [
  ["CC(=O)c1nc2cc(Cl)ccc2n1C", "Met"],
  ["COC(=O)c1cc2nc(S)[nH]c2cc1Cl", "Not met"],
  ["COC(=O)c1cc2c(cc1Cl)nc(S)n2C", "Not met"],
  ["COC(=O)Nc1nc2cc(Cl)ccc2n1C", "Met"],
  ["CCCSc1ccc(NC)c(N)c1", "Not met"],
  ["CNc1cc(Cl)ccc1N", "Not met"],
  ["CSc1nc2cc(C(N)=O)c(Cl)cc2[nH]1", "Met"],
  ["CSc1nc2cc(N3CCNCC3)c(Cl)cc2[nH]1", "Met"],
  ["CC(=O)c1nc2ccc(Cl)cc2n1C", "Not met"],
  ["CCCSc1ccc2c(c1)nc(NC(=O)OC)n2C", "Not met"]
]}
